Every entry's value here was drawn from patent US11008292B2.

test: Pharmacokinetic evaluation in mice (IV and oral gavage); assay type: in vivo, female Balb/c nude mice; conditions: mouse, plasma; PO gavage 10 mg/kg, female Balb/c nude mice; read-out: Cmax (peak concentration)
MEASURED QUANTITY: Cmax (nM)

MOLECULE	RESULT UNIT	Cmax
C=CC(=O)N[C@H]1COC[C@H]1Nc1ncc(OCc2c(Cl)c(OC)cc(OC)c2Cl)cn1 [Control example 8]	nM	2710

a. C=CC(=O)N[C@H]1CCOC[C@H]1Nc1ncc(/C=C(\F)c2c(Cl)c(OC)cc(OC)c2Cl)cn1
b. C=CC(=O)NC1COCC1Nc1ncc(C=C(F)c2c(Cl)c(OC)cc(OC)c2Cl)cn1 (single isomer, unassigned)
c. C=CC(=O)Nc1cccc(C)c1Nc1ncc(/C=C(\F)c2c(Cl)c(OC)cc(OC)c2Cl)cn1
## Input Arrange the 3 entries by Cmax so the values rise. The reply should contain the labels ordered as requested.
## Output c, b, a

====

target: FGFR1 protein kinase (Homo sapiens)
Sequence (P11362 22-822): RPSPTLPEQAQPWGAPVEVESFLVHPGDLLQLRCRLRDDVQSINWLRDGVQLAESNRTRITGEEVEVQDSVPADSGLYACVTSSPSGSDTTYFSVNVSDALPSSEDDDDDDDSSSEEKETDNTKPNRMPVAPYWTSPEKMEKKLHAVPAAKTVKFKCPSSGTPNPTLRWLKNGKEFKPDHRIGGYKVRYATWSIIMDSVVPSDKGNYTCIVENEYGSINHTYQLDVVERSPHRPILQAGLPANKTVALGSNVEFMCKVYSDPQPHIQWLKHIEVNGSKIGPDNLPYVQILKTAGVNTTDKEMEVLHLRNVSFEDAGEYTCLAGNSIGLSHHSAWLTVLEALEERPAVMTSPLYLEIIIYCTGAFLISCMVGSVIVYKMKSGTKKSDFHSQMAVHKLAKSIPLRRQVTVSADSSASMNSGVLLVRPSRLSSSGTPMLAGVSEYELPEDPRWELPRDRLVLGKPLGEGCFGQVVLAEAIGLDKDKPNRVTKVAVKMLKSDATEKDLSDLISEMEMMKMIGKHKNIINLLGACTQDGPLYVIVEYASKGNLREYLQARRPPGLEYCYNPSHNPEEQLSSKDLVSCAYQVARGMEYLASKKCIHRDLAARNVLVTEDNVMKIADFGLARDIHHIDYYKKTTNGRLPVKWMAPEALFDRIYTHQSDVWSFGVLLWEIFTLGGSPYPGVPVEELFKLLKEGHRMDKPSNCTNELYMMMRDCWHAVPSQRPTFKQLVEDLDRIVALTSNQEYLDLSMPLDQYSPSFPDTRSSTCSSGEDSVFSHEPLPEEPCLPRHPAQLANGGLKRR
pIC50: −log10 of the molar value.
MEASURED QUANTITY: pIC50

// known answers, use as guide
MOLECULE	pIC50
C=CC(=O)Nc1cc(N2CCN(CC)CC2)cc(C)c1Nc1ncc(/C(F)=C/c2c(Cl)c(OC)cc(OC)c2Cl)cn1 [Example 11]	5.30
C=CC(=O)N[C@H]1CCOC[C@H]1Nc1ncc(/C=C(\F)c2c(Cl)c(OC)cc(OC)c2Cl)cn1 [Example 16]	5.60
C=CC(=O)NC1COCC1Nc1ncc(C=C(F)c2c(Cl)c(OC)cc(OC)c2Cl)cn1 (single isomer, unassigned) [Example 21]	5.84

P. C=CC(=O)Nc1cc(N2CCN(CC)CC2)cc(C)c1Nc1ncc(/C=C/c2c(Cl)c(OC)cc(OC)c2Cl)cn1 [Control example 2, reference compound]
Q. C=CC(=O)Nc1ccc(OCCN2CCN(C)CC2)c(C)c1Nc1ncc(/C=C(\F)c2c(Cl)c(OC)cc(OC)c2Cl)cn1 [Example 14]
## Input Return label of the item with the larger pIC50. Candidates: P , Q . State your choice using its label.
## Output Q
